Where do the numbers come from? From patent US20230391845A1.

# assaySystem: T1, human glucose-dependent insulinotropic polypeptide receptor (human, UniProt P48546 22-466)
# T1 sequence (looked up): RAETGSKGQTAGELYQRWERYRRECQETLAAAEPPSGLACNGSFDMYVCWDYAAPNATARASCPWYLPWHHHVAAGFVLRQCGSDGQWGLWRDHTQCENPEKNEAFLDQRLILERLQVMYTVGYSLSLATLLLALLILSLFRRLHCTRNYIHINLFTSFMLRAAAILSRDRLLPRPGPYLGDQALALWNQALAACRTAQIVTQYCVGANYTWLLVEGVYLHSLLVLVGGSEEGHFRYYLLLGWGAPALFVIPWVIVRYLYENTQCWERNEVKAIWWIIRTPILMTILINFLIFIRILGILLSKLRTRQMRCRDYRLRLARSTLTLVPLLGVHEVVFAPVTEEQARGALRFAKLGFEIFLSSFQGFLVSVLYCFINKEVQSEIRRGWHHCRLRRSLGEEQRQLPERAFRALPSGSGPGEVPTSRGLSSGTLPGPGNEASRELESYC
# assayDetails: cell-based or functional assay
Where no end group is shown, it is not given here. [ ]: non-standard residue; d: D form. Aib = CC(C)(N)C(=O)O
readoutName: hGIPR CRE Luc EC50 (pM)
Write the number in pM without appending the unit.

q: Item under review: Y[Aib]QGTFTSDYSIYLDKKAA[Aib]EFVNWLLAGGPSSGAPPPS-NH2 (not fully specified (residue 17); printed as Y-Aib-QGTFTSDYSIYLDK-K[2-[2-[2-[[2-[2-[2-[[(4S)-4-carboxy-4-(17-carboxyheptadecanoylamino)butanoyl]amino]ethoxy]ethoxy]acetyl]amino]ethoxy]ethoxy]acetyl]-AA-Aib-EFVNWLLAGGPSSGAPPPS-NH2) [Compound No. 2] . Reported hGIPR CRE Luc EC50 (pM)?
a: 49.8
